target: human CYP11B2 (Homo sapiens, UniProt P19099); assay: G-402 cellular enzyme assay, human CYP11B2 (aldosterone release, HTRF); conditions: G-402 cells expressing human CYP11B2; 1 μM Deoxycorticosterone; 16 h
Sequence (P19099 25-503): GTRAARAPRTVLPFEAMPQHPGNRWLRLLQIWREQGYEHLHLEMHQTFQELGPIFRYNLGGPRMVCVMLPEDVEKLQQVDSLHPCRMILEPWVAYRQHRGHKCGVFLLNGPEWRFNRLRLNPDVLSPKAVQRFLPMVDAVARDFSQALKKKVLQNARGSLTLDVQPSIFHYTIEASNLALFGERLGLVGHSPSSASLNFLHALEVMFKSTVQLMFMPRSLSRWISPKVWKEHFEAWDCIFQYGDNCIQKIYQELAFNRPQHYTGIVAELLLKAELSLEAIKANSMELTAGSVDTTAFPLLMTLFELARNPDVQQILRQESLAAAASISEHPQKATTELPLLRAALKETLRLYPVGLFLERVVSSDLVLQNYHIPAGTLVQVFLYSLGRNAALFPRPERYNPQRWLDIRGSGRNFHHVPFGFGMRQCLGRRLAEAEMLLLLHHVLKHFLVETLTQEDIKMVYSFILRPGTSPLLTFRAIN
# note: exactly 0.004 µM is not below, so it is criterion not met; use criterion met for EC50 strictly under it

compound	assignedCategory
CC(C)n1cncc1C(=O)c1cccc(C#N)c1 [Example 57]	criterion not met
COc1cc(C(=O)c2cncn2C(C)C)ccc1SC [Example 61]	criterion met
N#Cc1ccc(-n2cncc2C(=O)c2ccc(Cl)c(F)c2)cc1 [Example 94]	criterion not met
O=C(c1ccc(Cl)c(Cl)c1)c1cncn1-c1ccc(Cl)cc1 [Example 91]	criterion not met
Cn1cncc1C(=O)c1cccc(C#N)c1 [Example 21]	criterion not met
CCC(C)n1cncc1C(=O)c1cccc(Cl)c1 (centres unmarked) [Example 28]	criterion not met
CCC(C)n1cncc1C(=O)c1ccc(F)c(C#N)c1 (centres unmarked) [Example 65]	criterion not met
O=C(c1ccc(F)c(Cl)c1)c1cncn1C1CC1 [Example 41]	criterion met

* * *

molecular target: human CYP11B1 (Homo sapiens, UniProt P15538); assay: G-402 cellular enzyme assay, human CYP11B1 (cortisol release, HTRF); details: G-402 cells expressing human CYP11B1; 1 μM Deoxycortisol; 16 h
Sequence (P15538 25-503): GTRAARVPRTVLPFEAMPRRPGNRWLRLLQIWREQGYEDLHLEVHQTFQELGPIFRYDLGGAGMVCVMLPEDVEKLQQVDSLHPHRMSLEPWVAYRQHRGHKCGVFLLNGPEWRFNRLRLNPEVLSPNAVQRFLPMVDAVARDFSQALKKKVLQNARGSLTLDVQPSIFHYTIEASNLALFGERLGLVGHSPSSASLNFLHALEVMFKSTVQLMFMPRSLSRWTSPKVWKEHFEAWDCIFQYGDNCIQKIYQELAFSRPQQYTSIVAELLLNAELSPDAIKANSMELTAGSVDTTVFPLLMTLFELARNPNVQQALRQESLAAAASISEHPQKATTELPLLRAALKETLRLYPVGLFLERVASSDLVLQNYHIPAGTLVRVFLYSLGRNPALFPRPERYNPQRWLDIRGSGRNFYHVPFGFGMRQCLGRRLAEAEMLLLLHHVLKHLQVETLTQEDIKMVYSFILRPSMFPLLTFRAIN
// class assignment uses EC50 with these ranges: category 1: < 90 nM; category 2: ≥ 90 nM and < 1000 nM; category 3: ≥ 1000 nM

compound	assignedCategory
N#Cc1ccc(C(=O)c2cncn2CC(F)(F)F)cc1	category 2
Cn1cncc1C(=O)c1ccc(F)c(Cl)c1	category 2
CC(C)n1cncc1C(=O)c1ccc(N(C)C=O)cc1	category 2
N#Cc1cc(C(=O)c2cncn2C2CC2)ccc1F	category 3
O=C(c1ccc(Cl)cc1)c1cncn1C1CC1	category 1
C#Cc1ccc(C(=O)c2cncn2C)cc1	category 2
COc1cc(C(=O)c2cncn2C)ccc1SC(F)(F)F	category 3
Cn1cncc1C(=O)c1ccc(Cl)cc1	category 2
Cn1cncc1C(=O)c1cccc(F)c1	category 2
CCn1cncc1C(=O)c1ccc(SC(F)(F)F)c(OC)c1	category 2
CCn1cncc1C(=O)c1cccc(C#N)c1	category 3
CCC(C)n1cncc1C(=O)c1ccc(C#N)cc1 (centres unmarked)	category 1
CCn1cncc1C(=O)c1ccc(N(C)C(C)=O)cc1	category 3
N#Cc1ccc(C(=O)c2cncn2C2CC2)cc1	category 1
CCn1cncc1C(=O)c1ccc2c(c1)CCC(=O)N2C	category 3
CCn1cncc1C(=O)c1ccc(C#N)cc1	category 1
CC(C)n1cncc1C(=O)c1ccc(F)c(Cl)c1	category 1
CSc1ccc(C(=O)c2cncn2C)cc1	category 3
CNc1ccc(C(=O)c2cncn2C)cc1	category 3
C#Cc1ccc(C(=O)c2cncn2C(C)C)cc1	category 1
CN(C(=O)OC(C)(C)C)c1ccc(C(=O)c2cncn2C)cc1	category 3
CN1C(=O)CCc2cc(C(=O)c3cncn3C)ccc21	category 3
CCC(CC)n1cncc1C(=O)c1cccc(C#N)c1	category 1
N#Cc1cccc(C(=O)c2cncn2C2CC2)c1	category 2
CN(C=O)c1ccc(C(=O)c2cncn2C)cc1	category 3
COc1cc(C(=O)c2cncn2C(C)C)ccc1SC	category 1
CCSc1ccc(C(=O)c2cncn2C(C)C)cc1	category 2
N#Cc1ccc(-n2cncc2C(=O)c2ccc(Cl)cc2)cc1	category 1
